All values here come from the supplement of paper PMC4862054.

# Tested on: MDA-MB-231
# protocol_details: normalised viability (% of control), CellTiter-Blue; higher = more viable cells (100 = DMSO, 0 = benzethonium chloride kill control)
# assay_setup: incubation time: 72 h
observed_property: normalised viability (%)
One number for each entry, in %.

* COc1cc2c(cc1O)CC[C@@H]1[C@@H]2CC[C@]2(C)[C@@H](O)CC[C@@H]12 [2-methoxyestradiol] (1 nM) | 88.8

Return reported normalised viability values for all items listed beneath this line.
1. Oc1ncnc2[nH]ncc12 [Allopurinol] (1 nM)
2. Cn1cnc2c(F)c(Nc3ccc(Br)cc3Cl)c(C(=O)NOCCO)cc21 [Selumetinib] (1 nM)
3. Nc1nc2[nH]cnc2c(=S)[nH]1 [Thioguanine] (1 nM)
4. Cc1sc2c(c1C)C(c1ccc(Cl)cc1)=N[C@@H](CC(=O)OC(C)(C)C)c1nnc(C)n1-2 [(+)JQ1] (1 nM)
5. O=C1CN2Cc3c(ccc(Cl)c3Cl)N=C2N1 [Anagrelide] (1 nM)

1. 93.5
2. 89
3. 92.8
4. 114
5. 102

====

# System: MCF-10A
# protocol_details: normalised response (% of control), CellTiter-Glo; higher = more viable cells (100 = DMSO, 0 = benzethonium chloride kill control)
# assay_setup: incubation time: 72 h
Would you kindly list normalised response for each of these compounds?
One number for each entry, in %.

Return reported normalised response values for all items listed beneath this line.
1. CC(=O)N(O)CCCCCNC(=O)CCC(=O)N(O)CCCCCNC(=O)CCC(=O)N(O)CCCCCN [Deferoxamine] (10 nM)
2. CC[C@@H]1C(=O)OC[C@@H]1Cc1cncn1C [Pilocarpine] (4000 nM)
3. Nc1nc2[nH]cnc2c(=S)[nH]1 [Thioguanine] (1000 nM)
4. CC1(C)CCC(CN2CCN(c3ccc(C(=O)NS(=O)(=O)c4ccc(NCC5CCOCC5)c([N+](=O)[O-])c4)c(Oc4cnc5[nH]ccc5c4)c3)CC2)=C(c2ccc(Cl)cc2)C1 [ABT-199] (1000 nM)
5. CC1(C)CNc2cc(NC(=O)c3cccnc3NCc3ccncc3)ccc21 [Motesanib] (10 nM)
6. Cn1cc(C2=Nc3cc(NC(=O)C(N)C4CCCCC4)cc4c3C2=CNNC4=O)cn1 (stereo not drawn) (1 nM)
7. CC(=O)N(O)CCCCCNC(=O)CCC(=O)N(O)CCCCCNC(=O)CCC(=O)N(O)CCCCCN [Deferoxamine] (1000 nM)
8. Cc1ccc([N+](=O)[O-])cc1S(=O)(=O)N(C)/N=C/c1cnc2ccc(Br)cn12 [PIK-75] (1 nM)

1: 91.4; 2: 93.8; 3: 99.8; 4: 96.9; 5: 93.9; 6: 80; 7: 97.7; 8: 95

====

# System: CAL-51
# protocol_details: normalised viability (% of control), CellTiter-Blue; higher = more viable cells (about 100 = DMSO control)
# assay_setup: 10 nM; incubation time: 72 h
Would you kindly list normalised viability for each of these compounds?
Give bare numbers, in %.

• COc1cc(F)c(F)c(Nc2ccc(I)cc2F)c1NS(=O)(=O)C1(C[C@H](O)CO)CC1 = 91.2
• Oc1ncnc2[nH]ncc12 = 90
• Cn1cc(C2=Nc3cc(NC(=O)C(N)C4CCCCC4)cc4c3C2=CNNC4=O)cn1 (centres undefined) = 98.2

Value lookup for normalised viability; key = C[C@]1(O)C[C@@H](c2nc(-c3ccc4ccc(-c5ccccc5)nc4c3)c3c(N)nccn32)C1
97.4
